Reported pEC50 values for a set of molecules
- Test system: genotype 1b NS3/4a protease inhibitor resistant variant D168A transient HCV replicon in Huh-7-derived cells
- ASSAY PROTOCOL: Transient-transfected HCV replicon EC50, genotype 1b D168A
- Type: cell-based, hepatitis C virus
- ASSAY SETUP: Hepatitis C virus, 72 h, read-out: EC50 1B D168A, transient-transfected replicon genotype 1b D168A resistant variant, 72 h
Quick note: pEC50 means taking -log10 of the concentration in moles per liter.

Solved entries:
MOLECULE	RECORDED RESULT
C[C@@H]1[C@@H]2CN(C(=O)[C@H](C(C)(C)C)NC(=O)O[C@@H]3C[C@@H]4C[C@@H]4[C@H]3CCCCC(F)(F)c3nc4ccccc4nc3O2)[C@@H]1C(=O)N[C@]1(C(=O)NS(=O)(=O)C2(C)CC2)C[C@H]1C(F)F [Example 82]	8.24
CC[C@@H]1[C@@H]2CN(C(=O)[C@H](C(C)(C)C)NC(=O)O[C@@]3(C)C[C@@H]3CCCCCc3nc4ccc(OC)cc4nc3O2)[C@@H]1C(=O)N[C@]1(C(=O)NS(=O)(=O)C2(C)CC2)C[C@H]1C(F)F [Example 8]	7.05
COc1ccc2nc3c(nc2c1)O[C@H]1CN(C(=O)[C@H](C(C)(C)C)NC(=O)O[C@@H]2C[C@H]2CCCCC3)[C@H](C(=O)N[C@]2(C(=O)NS(=O)(=O)C3CC3)C[C@H]2C(F)F)[C@@H]1C [Example 19]	7.55

Return reported pEC50; argument: CC[C@@H]1[C@@H]2CN(C(=O)[C@H](C(C)(C)C)NC(=O)O[C@@H]3C[C@H]3CCCCC(F)(F)c3nc4ccc(OC)cc4nc3O2)[C@@H]1C(=O)N[C@]1(C(=O)NS(=O)(=O)C2(C)CC2)C[C@H]1C(F)F [Example 17] 8.37

What do you have for CC[C@@H]1[C@@H]2CN(C(=O)[C@H](C(C)(C)C)NC(=O)O[C@@H]3C[C@H]3CCCCC(F)(F)c3nc4ccc(OC)cc4nc3O2)[C@@H]1C(=O)NC1(C(=O)NS(=O)(=O)C2CC2)C[C@H]1C(F)F (stereo partly drawn) [Example 94] ? 8.04

Okay, and CC[C@@H]1[C@@H]2CN(C(=O)[C@H](C(C)(C)C)NC(=O)O[C@@H]3C[C@H]3CCCCCc3nc4ccc(OC)cc4nc3O2)[C@@H]1C(=O)N[C@]1(C(=O)NS(=O)(=O)C2CC2)C[C@H]1C(F)F [Example 2] ? 7.48

// query: CC[C@@H]1[C@@H]2CN(C(=O)[C@H](C(C)(C)C)NC(=O)O[C@@H]3C[C@H]3CCCCCc3nc4ccc(OC)cc4nc3O2)[C@@H]1C(=O)N[C@]1(C(=O)NS(=O)(=O)C2(F)CC2)C[C@H]1C(F)F [Example 74] 7.25

Now give it for CC[C@@H]1[C@@H]2CN(C(=O)[C@H](C(C)(C)C)NC(=O)O[C@]3(C)CCC[C@H]3CCCCCc3nc4ccc(OC)cc4nc3O2)[C@@H]1C(=O)N[C@]1(C(=O)NS(=O)(=O)C2(C)CC2)C[C@H]1C(F)F [Example 39] too. 6.98

Again, but for CC[C@@H]1[C@@H]2CN(C(=O)[C@H](C(C)(C)C)NC(=O)O[C@@H]3C[C@H]3CCCCCc3nc4ccc(OC)cc4nc3O2)[C@@H]1C(=O)N[C@]1(C(=O)NS(=O)(=O)C2(Cl)CC2)C[C@H]1C(F)F [Example 75] 7.29

---

- System: genotype 1b NS3/4a protease inhibitor resistant variant D168A transient HCV replicon in Huh-7-derived cells
- ASSAY PROTOCOL: Transient-transfected HCV replicon EC50, genotype 1b D168A
- Type: cell-based, hepatitis C virus
- ASSAY SETUP: Hepatitis C virus, 72 h, read-out: EC50 1B D168A, transient-transfected replicon genotype 1b D168A resistant variant, 72 h
VALUE TYPE: pEC50
Lab note — pEC50 values are minus log10 of concentrations in M.

Solved cases below.
COMPOUND	pEC50
COc1ccc2nc3c(nc2c1)O[C@H]1CN(C(=O)[C@H](C(C)(C)C)NC(=O)O[C@@H]2C[C@H]2CCCCC3)[C@H](C(=O)N[C@]2(C(=O)NS(=O)(=O)C3(C)CC3)C[C@H]2C(F)F)[C@@H]1CC#N	5.35
COc1ccc2nc3c(nc2c1)O[C@H]1CN(C(=O)[C@H](C(C)(C)C)NC(=O)O[C@@H]2C[C@@H]4C[C@@H]4[C@H]2CCCCC3)[C@H](C(=O)NC2(C(=O)NS(=O)(=O)C3CC3)C[C@H]2C(F)F)[C@@H]1C (stereo in doubt)	8.38
CC[C@@H]1[C@@H]2CN(C(=O)[C@H](C(C)(C)C)NC(=O)O[C@]3(C)CCC[C@H]3CCCCCc3nc4ccc(OC)cc4nc3O2)[C@@H]1C(=O)N[C@]1(C(=O)NS(=O)(=O)C2(C)CC2)C[C@H]1CC	6.60

// below: pEC50 requested for another compound
Which pEC50 value belongs to COc1ccc2nc3c(nc2c1)O[C@H]1CN(C(=O)[C@H](C(C)(C)C)NC(=O)O[C@@H]2C[C@H]2CCCCC3(F)F)[C@H](C(=O)N[C@]2(C(=O)NS(=O)(=O)C3(C)CC3)C[C@H]2C(F)F)[C@@H]1C ? 8.35

---

- Test system: genotype 4a (ED43) stable HCV replicon in Huh-7-derived cells
- ASSAY PROTOCOL: Stable subgenomic HCV replicon EC50, genotype 4a (Renilla luciferase)
- Type: cell-based, hepatitis C virus
- ASSAY SETUP: Hepatitis C virus, 72 h, read-out: EC50 4A RLUC
VALUE TYPE: EC50 (nM)
Could you give me the number in nM? Just the number is fine.

COMPOUND	EC50 [nM]
CC[C@@H]1[C@@H]2CN(C(=O)[C@H](C(C)(C)C)NC(=O)O[C@@H]3C[C@H]3CCCCCc3nc4ccc(OCC(F)(F)F)cc4nc3O2)[C@@H]1C(=O)N[C@]1(C(=O)NS(=O)(=O)C2(C)CC2)C[C@H]1C(F)F [Example 55]	3.5

From here, focus on the item given below.
Quick one: EC50 for CC[C@@H]1[C@@H]2CN(C(=O)[C@H](C(C)(C)C)NC(=O)O[C@]3(C)C[C@H]3CCCCCc3nc4ccc(OC)cc4nc3O2)[C@@H]1C(=O)N[C@]1(C(=O)NS(=O)(=O)C2(C)CC2)C[C@H]1C(F)F [Example 7] ? 3.2

---

- System: genotype 1a (H77) stable HCV replicon in Huh-7-derived cells
- ASSAY PROTOCOL: Stable subgenomic HCV replicon EC50, genotype 1a (Renilla luciferase)
- Format: cell-based, hepatitis C virus
- ASSAY SETUP: Hepatitis C virus, stable replicon genotype 1a, 72 h, read-out: EC50 1A RLUC
- Procedure: Antiviral potency (EC50) was determined in both stable subgenomic HCV replicon cell lines and transient-transfected HCV replicon cells. […] To perform EC50 assays, cells from each HCV replicon were dispensed into 384-well plates. […] Seventy-two hours later, cells were lysed and Renilla luciferase activity were quantified as recommended by the manufacturer (Promega-Madison, Wis.). […]
VALUE TYPE: EC50 (nM)
Please reply with the bare figure in nM and do not write the unit itself.

Look over these answered cases.
COMPOUND	U	EC50
COc1ccc2nc3c(nc2c1)O[C@H]1CN(C(=O)[C@H](C(C)(C)C)NC(=O)O[C@@H]2C[C@H]2CCCCC3)[C@H](C(=O)N[C@]2(C(=O)NS(=O)(=O)C3CC3)C[C@H]2CC(F)F)[C@@H]1C [Example 24]	nM	12
C[C@@H]1[C@@H]2CN(C(=O)[C@H](C(C)(C)C)NC(=O)O[C@@H]3C[C@@H]4C[C@@H]4[C@H]3CCCCCc3nc4ccc(F)cc4nc3O2)[C@@H]1C(=O)N[C@]1(C(=O)NS(=O)(=O)C2(C)CC2)C[C@H]1C(F)F [Example 86]	nM	5.6
CC[C@@H]1[C@@H]2CN(C(=O)[C@H](C(C)(C)C)NC(=O)O[C@@H]3C[C@H]3CCCC3CC3c3nc4ccc(OC)cc4nc3O2)[C@@H]1C(=O)N[C@]1(C(=O)NS(=O)(=O)C2(C)CC2)C[C@H]1C(F)F (stereo partly shown) [Example 36]	nM	23

Give genotype 1a (H77) stable HCV replicon in Huh-7-derived cells EC50 for CC[C@@H]1[C@@H]2CN(C(=O)[C@H](C(C)(C)C)NC(=O)O[C@]3(C)CCC[C@H]3CCCCCc3nc4ccc(OC)cc4nc3O2)[C@@H]1C(=O)N[C@]1(C(=O)NS(=O)(=O)C2CC2)C[C@H]1CC [Example 51] 40

---

Listed below: pKi values for each entry.
- TARGET OR TEST SYSTEM: HCV NS3 protease domain genotype 1b (Hepatitis C virus genotype 1b (isolate Con1), UniProt Q9WMX2, E1202G)
- Sequence (Q9WMX2 1027-1208 E1202G): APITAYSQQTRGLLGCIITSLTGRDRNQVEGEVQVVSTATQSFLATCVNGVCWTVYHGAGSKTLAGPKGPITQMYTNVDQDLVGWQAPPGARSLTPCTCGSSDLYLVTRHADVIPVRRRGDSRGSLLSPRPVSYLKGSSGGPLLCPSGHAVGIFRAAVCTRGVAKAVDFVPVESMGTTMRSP
- ASSAY PROTOCOL: Ki determination, NS3 protease genotype 1b (fluorogenic depsipeptide substrate)
- ASSAY SETUP: 50 pM enzyme, NS4A peptide
Just the number, please; pKi means minus log10 of the concentration in mol/L.

COMPOUND	pKi
COc1ccc2nc3c(nc2c1)O[C@H]1CN(C(=O)[C@H](C(C)(C)C)NC(=O)O[C@@H]2CCN(C(C)=O)C2CCCCC3)[C@H](C(=O)N[C@]2(C(=O)NS(=O)(=O)C3(C)CC3)C[C@H]2C(F)F)[C@@H]1C (stereo partly drawn) [Example 80]	9.31
C[C@@H]1[C@@H]2CN(C(=O)[C@H](C(C)(C)C)NC(=O)O[C@@H]3C[C@@H]4C[C@@H]4[C@H]3CCCCCc3nc4ccc(F)cc4nc3O2)[C@@H]1C(=O)N[C@]1(C(=O)NS(=O)(=O)C2(C)CC2)C[C@H]1C(F)F [Example 86]	10.40

Dear colleague, I am looking for the recorded pKi of the following compound: CCC[C@@H]1[C@@H]2CN(C(=O)[C@H](C(C)(C)C)NC(=O)O[C@@H]3C[C@H]3CCCCCc3nc4ccc(OC)cc4nc3O2)[C@@H]1C(=O)N[C@]1(C(=O)NS(=O)(=O)C2(C)CC2)C[C@H]1C(F)F [Example 29] 10.22

Also CC[C@@H]1[C@@H]2CN(C(=O)[C@H](C(C)(C)C)NC(=O)O[C@@H]3CCC[C@H]3CCCCCc3nc4ccc(OC)cc4nc3O2)[C@@H]1C(=O)N[C@]1(C(=O)NS(=O)(=O)C2CC2)C[C@H]1C(F)F [Example 5] ? 10.40

Likewise for COc1ccc2nc3c(nc2c1)O[C@H]1CN(C(=O)[C@H](C(C)(C)C)NC(=O)O[C@@H]2C[C@H]2CCCCC3)[C@H](C(=O)N[C@]2(C(=O)NS(=O)(=O)C3(C)CC3)C[C@H]2C(F)F)[C@@H]1C1CC1 [Example 31] ? 9.89

Also CC[C@@H]1[C@@H]2CN(C(=O)[C@H](C(C)(C)C)NC(=O)O[C@@H]3[C@H]4CC[C@H](C4)[C@H]3CCCCCc3nc4ccc(OC)cc4nc3O2)[C@@H]1C(=O)N[C@]1(C(=O)NS(=O)(=O)C2CC2)C[C@H]1C(F)F [Example 13] , if possible. 10.40
